- targetDesc: PPARβ (Homo sapiens, UniProt Q03181)
- Sequence (Q03181 1-441): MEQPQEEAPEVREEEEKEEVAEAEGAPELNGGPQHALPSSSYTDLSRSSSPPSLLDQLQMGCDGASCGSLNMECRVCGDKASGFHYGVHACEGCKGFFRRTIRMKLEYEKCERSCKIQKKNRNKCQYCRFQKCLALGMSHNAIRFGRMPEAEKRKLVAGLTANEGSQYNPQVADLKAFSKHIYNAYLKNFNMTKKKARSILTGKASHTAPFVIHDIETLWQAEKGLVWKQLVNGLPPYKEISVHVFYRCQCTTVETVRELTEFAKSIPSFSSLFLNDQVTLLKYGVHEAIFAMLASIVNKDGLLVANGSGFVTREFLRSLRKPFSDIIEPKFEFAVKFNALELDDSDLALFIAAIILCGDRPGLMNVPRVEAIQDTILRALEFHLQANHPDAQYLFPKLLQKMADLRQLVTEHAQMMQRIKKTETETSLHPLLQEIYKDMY
- test: nuclear receptor cellular GAL4 reporter assay
- studyConditions: agonist and antagonist mode; read-out: potency in agonist and antagonist mode
experimentalReadout: IC50

Tell me the measured IC50 of CC1CCCN1C(=O)c1nc(C(=O)NCC(C)(C)O)sc1-c1ccc(C(O)(C(F)(F)F)C(F)(F)F)c(Cl)c1Cl (stereo not shown) , please.
> 1.5 µM
